B1: OAS1 (parent)
chain: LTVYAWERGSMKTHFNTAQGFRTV

Variants of: B1
Test: protein stability index of a GFP-peptide fusion (GPS, HEK-293T) (PSI 1-6); higher = more stable;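 note: lentivirally expressed fusions sorted by FACS into six bins by GFP to DsRed ratio, PSI derived from sequencing read proportions per bin multiplied by bin number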
Conditions: c terminus: a fixed tail appended
recorded_metric: protein stability index

biopolymer_sequence	observed
LTVYAWPRGSMKTHFNTAQGFRTV [E7P]	2.46
LTVYAWERGSMKTHMNTAQGFRTV [F15M]	2.26
LTVYAWERGSMKTQFNTAQGFRTV [H14Q]	1.75
LTVYAWERGSMKTNFNTAQGFRTV [H14N]	1.74
LTVYAWERGSMTTHFNTAQGFRTV [K12T]	2.98
LTSYAWERGSMKTHFNTAQGFRTV [V3S]	2.12
LTVYAWERGSMKTWFNTAQGFRTV [H14W]	2.76
LTVYAWERGSMKTHFNTAQGFRSV [T23S]	2.78
LTVYAWERGSRKTHFNTAQGFRTV [M11R]	2.16
LTVYAWERGSMKTHFNTAQGFMTV [R22M]	2.53
LTVYAWERGSMKTHFNTAQGQRTV [F21Q]	1.65
LTVYAWNRGSMKTHFNTAQGFRTV [E7N]	1.99
LTVYAWERGSMKTHTNTAQGFRTV [F15T]	1.9
LTVYAWERGSMKTHFNTACGFRTV [Q19C]	3.17
LTVYANERGSMKTHFNTAQGFRTV [W6N]	2.06
LTVYAWERGSMKTHFNTQQGFRTV [A18Q]	2.79
LTVYAWERGSVKTHFNTAQGFRTV [M11V]	2.09
LTVYAWERGSMCTHFNTAQGFRTV [K12C]	3.27
LTVYAWIRGSMKTHFNTAQGFRTV [E7I]	2.63
LTVYAWERGSMKIHFNTAQGFRTV [T13I]	2.75
LTVYAWERGSMKTHFNTAQQFRTV [G20Q]	2.14
LTVYAWERGSMKTHFNTAQNFRTV [G20N]	2.19
LTVYAWERGSMKTHFNTAQGKRTV [F21K]	2.27
LTVYAWERGSMWTHFNTAQGFRTV [K12W]	2.8
LTVYAWERGSMKTHFNTNQGFRTV [A18N]	2.63
LTVYAWERGSMKTHFNLAQGFRTV [T17L]	2.17
LTVYAWERGSMHTHFNTAQGFRTV [K12H]	2.87
LTVYAWERGVMKTHFNTAQGFRTV [S10V]	2.62
LTVYAWERGSMKTHFNTAVGFRTV [Q19V]	3.84
FTVYAWERGSMKTHFNTAQGFRTV [L1F]	2.48
LTVYAWERGSMETHFNTAQGFRTV [K12E]	2.22
LTVYAWERGSMITHFNTAQGFRTV [K12I]	2.98
NTVYAWERGSMKTHFNTAQGFRTV [L1N]	2
LTVYAWERGSMGTHFNTAQGFRTV [K12G]	1.54
LTVYAWERGSMKGHFNTAQGFRTV [T13G]	2.33
LTVYAWERGSMKTHQNTAQGFRTV [F15Q]	1.53
LTVYAWERGSMKTHFNTAQGFRTR [V24R]	1.69
LTVYAWERGSMKTHFNTMQGFRTV [A18M]	2.79
LTVYAWESGSMKTHFNTAQGFRTV [R8S]	2.55
LTVYAWERGSMKTHFCTAQGFRTV [N16C]	2.63
LTPYAWERGSMKTHFNTAQGFRTV [V3P]	1.77
LTVYAWERGSMKTHFNTAQGIRTV [F21I]	2.09
LTVYAWERGSMKTHFNTIQGFRTV [A18I]	4.47
LHVYAWERGSMKTHFNTAQGFRTV [T2H]	2.11
LTVYEWERGSMKTHFNTAQGFRTV [A5E]	2.46
LTKYAWERGSMKTHFNTAQGFRTV [V3K]	2.12
